Item-by-item account of pIC50
- test target: KSP motor domain (Homo sapiens)
- Sequence (P52732 18-359 limits assumed): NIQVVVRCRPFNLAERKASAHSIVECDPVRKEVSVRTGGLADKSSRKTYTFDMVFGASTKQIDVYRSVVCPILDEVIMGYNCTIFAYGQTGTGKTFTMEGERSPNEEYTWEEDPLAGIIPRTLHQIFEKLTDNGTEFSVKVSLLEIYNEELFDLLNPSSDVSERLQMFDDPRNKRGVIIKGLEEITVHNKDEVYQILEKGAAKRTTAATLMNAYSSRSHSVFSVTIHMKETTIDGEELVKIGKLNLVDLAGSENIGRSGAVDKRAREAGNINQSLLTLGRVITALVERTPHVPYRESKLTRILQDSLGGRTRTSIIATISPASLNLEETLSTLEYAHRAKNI
- procedure details: biochemical
- condition info: KSP inhibitory activity, end-point assay; class symbols (Table 1); read-out: IC50
pIC50: −log10 of the molar value.

Please review the entries below; each comes with its answer.
1) N#Cc1sc2nc3c(cc2c1N)CC(Cc1ccccc1)CC3 (stereo not drawn) = < 5.00
2) CNc1nsnc1C(=O)Nc1cccc([C@@H](CN)NC(=O)c2cc3cc4c(nc3s2)CC[C@@H](C(C)(C)C)C4)c1 = > 7.00
3) CC(C)(C)C1CCc2cc3cc(C(N)=O)sc3nc2CC1 (stereo not drawn) = 5.00 to 6.00
4) CC(C)(C)C1CCc2nc3sc(C(=O)NCC#N)cc3cc2C1 (stereo not drawn) = 6.00 to 7.00
5) N#Cc1sc2nc3c(cc2c1N)CC(C1CCCCC1)CC3 (stereo not drawn) = < 5.00

Give the reported value of pIC50 for this record: C[C@@H]1CN[C@@H](C)CN1C(=O)Nc1cccc([C@@H](CN)NC(=O)c2cc3cc4c(nc3s2)CC[C@@H](C(C)(C)C)C4)c1
6.00 to 7.00

Give the reported value of pIC50 for this record: N#Cc1sc2nc3c(cc2c1N)CCCC3
< 5.00

Give the reported value of pIC50 for this record: CC(C)(C)C1CCc2nc3sc(C(=O)NO)cc3cc2C1 (stereo not drawn)
> 7.00

Give the reported value of pIC50 for this record: CCC1Cc2nc3sc(C#N)c(N)c3cc2CC1C(C)(C)C (stereo not drawn)
5.00 to 6.00
